meta.source: patent US9708334B2

# subject.of.test: GlyT1 (Homo sapiens)
# Construct: expressed in transfected cells
# Sequence (P48067 whole entry): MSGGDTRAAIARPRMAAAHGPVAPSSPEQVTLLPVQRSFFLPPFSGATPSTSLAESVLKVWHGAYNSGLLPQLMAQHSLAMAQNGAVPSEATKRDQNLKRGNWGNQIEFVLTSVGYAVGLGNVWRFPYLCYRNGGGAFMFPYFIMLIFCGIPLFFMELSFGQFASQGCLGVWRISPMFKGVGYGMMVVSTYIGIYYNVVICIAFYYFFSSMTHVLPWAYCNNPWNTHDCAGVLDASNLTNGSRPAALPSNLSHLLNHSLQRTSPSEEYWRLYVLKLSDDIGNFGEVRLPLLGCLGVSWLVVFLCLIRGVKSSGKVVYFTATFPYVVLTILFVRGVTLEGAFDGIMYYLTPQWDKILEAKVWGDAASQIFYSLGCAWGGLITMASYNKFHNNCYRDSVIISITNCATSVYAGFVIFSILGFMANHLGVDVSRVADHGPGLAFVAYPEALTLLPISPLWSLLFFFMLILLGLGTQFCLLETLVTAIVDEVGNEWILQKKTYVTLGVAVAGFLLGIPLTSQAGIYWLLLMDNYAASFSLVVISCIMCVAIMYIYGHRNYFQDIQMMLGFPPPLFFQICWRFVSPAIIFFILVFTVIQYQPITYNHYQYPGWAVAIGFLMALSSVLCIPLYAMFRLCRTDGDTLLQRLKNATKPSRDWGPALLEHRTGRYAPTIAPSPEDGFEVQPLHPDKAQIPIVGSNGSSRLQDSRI
# experiment.description: Glycine Transporter 1 (GlyT1) uptake assay, scintillation proximity assay of [14C]-glycine uptake
# Format: cell-based
# conditions.used: SPA, four parameter logistic fit, read-out: GlyT1 (pIC50) (converted)

molecule: CCS(=O)(=O)c1ccc(-c2cccc(F)c2)c(C(=O)N2Cc3cn(-c4cncc(F)c4)nc3C2)c1
IC50: < 0.1 µM

molecule: CCCC(C)Oc1ccc(C#N)c(OC)c1C(=O)N1Cc2cn(-c3ccc(F)cc3)nc2C1 (stereo not shown)
IC50: 0.1 to 1 µM

molecule: CC1(COc2ccc(C#N)c(Cl)c2C(=O)N2CCc3nn(-c4ccccc4)cc3C2)CC1
IC50: 0.1 to 1 µM

molecule: CS(=O)(=O)c1ccc(-c2cncc(F)c2)c(C(=O)N2Cc3cn(-c4ccccc4F)nc3C2)c1
IC50: < 0.1 µM

molecule: N#Cc1ccc(C2(F)COC2)c(C(=O)N2CCc3nn(-c4ccccc4)cc3C2)c1F
IC50: > 10 µM

molecule: CC(C)Oc1ccc(S(=O)(=O)C(C)C)cc1C(=O)N1Cc2cn(-c3ccccc3)nc2C1
IC50: 1 to 10 µM

molecule: N#Cc1ccc(C2CCC2)c(C(=O)N2CCc3nn(-c4ccccc4)cc3C2)c1F
IC50: 1 to 10 µM
